- Species: Rattus norvegicus
- Measurement protocol: Open TG-GATES - Regimen: Single
- Assay type: toxicity, organism-based, Sprague-Dawley
- Parameters: regimen Single, gender Male, age 6 weeks
- Condition set: in vivo, po, 100 mg/kg, 9 h, tissue Blood, route gavage, dose level Low
Use met when the recorded Neu is no lower than 20%; use not met when it is lower.

1) Clc1ccccc1CN1CCc2sccc2C1	met
2) O=C(O)c1cc(/N=N/c2ccc(S(=O)(=O)Nc3ccccn3)cc2)ccc1O	not met
3) C[C@H](CS)C(=O)N1CCC[C@H]1C(=O)O	not met
4) O=C(O)c1cn(C2CC2)c2cc(N3CCNCC3)c(F)cc2c1=O	not met
